Tested on: Plasmodium berghei
Assay: Screen against P. berghei liver stage (PbLuc), transformed with Luciferase, at 10uM
Type: functional, HepG2
Settings: tested at 10 uM
The campaign covered roughly 69,000 compounds. About 8,600 (12%) showed an effect of 50% or more. This excerpt belongs to a sample that is enriched for strong results.
Endpoint: INHIBITION (%)
API: value field is a number in %; no unit string.

O=C(c1cnccn1)N(CCO)Cc1cc(Br)ccc1F	-7.81
COc1ccc2c(c1)CN(Cc1ccco1)C(=O)CCN2CC(C)(C)O	51.7
COC(=O)Cn1c(=O)[nH]c2cn(-c3ccc(F)cc3)c(=O)n21	31
CCc1nnc(CN(CC)C(=O)C2CCC(=O)N(C3CCCC3)C2)o1 (stereo not drawn)	15.3

[in] Given CCC(CN1CCCC1)n1cncc1-c1cnn(Cc2ccccc2)c1 (stereo not drawn) , respond with its INHIBITION.
[out] 3.5

[in] Given CNC(=O)[C@@H]1[C@H]2CN(Cc3ccccn3)CCN2C[C@H]1c1ccccc1 , respond with its INHIBITION.
[out] 8.61

[in] Given Cc1cc2c(c(-c3cncc(C(=O)N4CCCC4)n3)c1)OC(CN)C2 (stereo not drawn) , respond with its INHIBITION.
[out] 57.3
